Target: Interstitial collagenase (Homo sapiens)
Sequence (P03956 whole entry): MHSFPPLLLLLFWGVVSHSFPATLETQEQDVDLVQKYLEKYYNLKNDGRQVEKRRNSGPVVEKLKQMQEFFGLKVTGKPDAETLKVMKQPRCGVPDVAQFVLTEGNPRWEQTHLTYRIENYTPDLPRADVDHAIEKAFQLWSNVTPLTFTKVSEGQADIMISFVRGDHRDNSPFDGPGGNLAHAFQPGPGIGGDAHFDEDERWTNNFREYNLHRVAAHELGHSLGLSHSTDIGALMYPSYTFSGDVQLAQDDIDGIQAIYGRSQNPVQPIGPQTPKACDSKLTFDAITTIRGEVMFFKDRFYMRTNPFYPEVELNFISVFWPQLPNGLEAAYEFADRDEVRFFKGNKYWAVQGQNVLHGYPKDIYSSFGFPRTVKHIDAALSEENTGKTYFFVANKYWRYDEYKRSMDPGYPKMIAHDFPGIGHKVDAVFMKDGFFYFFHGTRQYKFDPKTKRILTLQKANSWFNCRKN
Please provide measured pIC50 for the entries that follow.
# log scale: pIC50 equals minus log10 of the concentration in mol/L

INPUT: Hello, I am looking for reported pIC50 with Interstitial collagenase (Homo sapiens) for `Cc1ccccc1NC(=O)/C=C/c1ccc(O)c(O)c1` . Could you help?
OUTPUT: 5.33

INPUT: Now consider `COc1cccc(NC(=O)/C=C/c2ccc(O)c(O)c2)c1` .
OUTPUT: 5.28

INPUT: For `O=C(/C=C/c1ccc(O)c(O)c1)Nc1ccccc1Cl` then?
OUTPUT: 5.43

INPUT: Also need `O=C(/C=C/c1ccc(O)cc1)NCCc1ccccc1` , thanks.
OUTPUT: 5.49

INPUT: And the next one, O=C(/C=C/c1ccc(O)c(O)c1)NCCc1ccccc1 [CAFFEIC ACID PHENETHYL AMIDE] ?
OUTPUT: 5.48

INPUT: Try the compound `Cc1cccc(NC(=O)/C=C/c2ccc(O)cc2)c1`
OUTPUT: 5.31
